molecular target: Tyrosine-protein kinase BTK (Homo sapiens, UniProt Q06187); assay: Inhibition of BTK in human whole blood assessed as reduction in BTK phosphorylation measured after 30 mins by phosphotyrosine detection method; assay type: tissue-based
Sequence (Q06187 whole entry): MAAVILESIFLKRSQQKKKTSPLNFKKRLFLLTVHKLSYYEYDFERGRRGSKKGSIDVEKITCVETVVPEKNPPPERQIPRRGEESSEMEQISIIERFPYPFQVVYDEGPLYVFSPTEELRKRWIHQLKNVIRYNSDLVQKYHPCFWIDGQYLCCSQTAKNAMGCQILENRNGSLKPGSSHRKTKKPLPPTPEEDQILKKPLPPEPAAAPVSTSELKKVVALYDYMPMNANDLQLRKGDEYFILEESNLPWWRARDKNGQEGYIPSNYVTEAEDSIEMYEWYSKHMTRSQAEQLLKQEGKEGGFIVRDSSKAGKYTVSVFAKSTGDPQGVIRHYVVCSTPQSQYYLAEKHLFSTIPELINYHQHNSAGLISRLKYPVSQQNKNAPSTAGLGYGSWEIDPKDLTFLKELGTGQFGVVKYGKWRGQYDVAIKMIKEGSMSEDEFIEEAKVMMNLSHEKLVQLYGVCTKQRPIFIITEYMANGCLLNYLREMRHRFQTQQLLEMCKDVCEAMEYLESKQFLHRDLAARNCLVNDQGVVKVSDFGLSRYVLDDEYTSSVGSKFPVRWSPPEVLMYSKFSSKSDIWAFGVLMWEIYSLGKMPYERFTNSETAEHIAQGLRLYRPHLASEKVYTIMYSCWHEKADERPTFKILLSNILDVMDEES
Provide the recorded pIC50 for the entries that follow.
Just so you know, pIC50 here is -log10 of the concentration in molar units; reply with that number alone.

Query block: Answer with the recorded pIC50 for the molecule listed here: Cc1cc(-c2ncnc3[nH]ccc23)ccc1CNC(=O)c1ccc(C(C)(C)C)cc1
Result block: 5.11

Query block: Give me measured pIC50, please, for this molecule: Cc1cc(-c2ccnc(Nc3cnn(C)c3)n2)ccc1CNC(=O)c1cnc(C(C)(C)C)s1
Result block: 6.37

Query block: // Input: Cc1cc(-c2ccnc(Nc3cnn(C)c3)n2)ccc1CNC(=O)N1CC(CC(C)C)C1 . Output its pIC50 only.
Result block: 6.19

Query block: Supply reported pIC50 belonging to this molecule: Cc1cc(-c2ccnc(Nc3cnn(C)c3)n2)ccc1CNC(=O)N1CCC(C(C)(C)C)C1 (configuration not stated)
Result block: 6.46

Query block: Look up and report measured pIC50 for this entry: Cc1cc(-c2ccnc(Nc3ccncc3)n2)ccc1CNC(=O)c1cnc(C(C)(C)C)s1
Result block: 5.28

Query block: Report pIC50 for Cc1cc(-c2ccnc(Nc3cnn(C)c3)n2)ccc1CNC(=O)c1nnc(C(C)(C)C)s1
Result block: 5.85

====

assay: Clearance in dog at 1 mg/kg, iv; type: ADME, organism-based, Canis lupus familiaris; conditions: in vivo
Parameter measured: clearance (mL/min/kg)
Entry rule: numbers only, all in mL/min/kg.

Query block: Give reported clearance value for Cc1cc(-c2ccnc(Nc3cnn(C)c3)n2)ccc1CNC(=O)N1CC(OC(C)C)C1
Result block: 11

====

assay: Protein binding in cynomolgus monkey plasma assessed as unbound fraction; assay type: ADME, cell-free, Macaca fascicularis
Parameter measured: fraction unbound
Please state the value as a number alone, without comment.

Query block: Annotate the compound Cc1cc(-c2ccnc(Nc3cnn(C)c3)n2)ccc1CNC(=O)N1CC(OC(C)C)C1 with its measured fraction unbound.
Result block: 0.0362

====

target: Tyrosine-protein kinase BTK (Homo sapiens, UniProt Q06187); test: Inhibition of recombinant human full-length N-terminal His6-tagged BTK expressed in baculovirus infected Sf21 insect cells using fluorescein-labeled polyGAT peptide substrate measured after 30 mins by TR-FRET assay
Parameter measured: pIC50
Lab note — pIC50 values are minus log10 of concentrations in M.

Query block: Specify pIC50 for Cc1cc(-c2ccnc(N)n2)ccc1CNC(=O)c1cnc(C(C)(C)C)s1 and stop.
Result block: 8.22

Query block: Please give the documented pIC50 of CC(C)(C)c1ccc(C(=O)NCc2ccc(-c3ncnc4[nH]ccc34)cc2C(N)=O)cc1
Result block: 5.49

Query block: Identify measured pIC50 corresponding to Cc1cc(-c2cc(N)ncn2)ccc1CNC(=O)c1cnc(C(C)(C)C)s1
Result block: 8.05

====

I'd be grateful if you could share measured hepatic extraction ratio for these entries.
assay: Clearance in rat liver microsomes relative to hepatic blood flow; format: ADME, Microsome; details: read-out: CLH
Just the number, please.

Query block: Let me know recorded hepatic extraction ratio for Cc1cc(-c2ccnc(Nc3cnn(C)c3)n2)ccc1CNC(=O)N1CCC(C(C)(C)C)C1 (stereo not drawn) , thanks.
Result block: 0.01

Query block: For the compound Cc1cc(-c2ccnc(Nc3cnn(C)c3)n2)ccc1CNC(=O)c1cnc(C(C)(C)C)s1 , give its measured hepatic extraction ratio value.
Result block: 0.01

Query block: Look up and report measured hepatic extraction ratio for this entry: Cc1cc(-c2ccnc(Nc3cnn(C)c3)n2)ccc1CNC(=O)c1nnc(C(C)(C)C)s1
Result block: 0.01

Query block: Indicate the recorded hepatic extraction ratio value for this compound: Cc1cc(-c2ccnc(Nc3cnn(C)c3)n2)ccc1CNC(=O)C1CCC(C(C)(C)C)C1 (stereo not drawn)
Result block: 0.03

Query block: Give the value of hepatic extraction ratio reported for the following: Cc1cc(-c2ccnc(Nc3cnn(C)c3)n2)ccc1CNC(=O)N1CC(CC(C)C)C1
Result block: 0.01

Query block: Name the recorded hepatic extraction ratio of the compound listed here: Cc1cc(-c2ccnc(N)n2)ccc1CNC(=O)c1cnc(C(C)(C)C)s1
Result block: 0.65

Query block: Return hepatic extraction ratio for the following compound: Cc1cc(-c2ncnc3[nH]ccc23)ccc1CNC(=O)c1cnc(C(C)(C)C)s1
Result block: 0.91

Query block: Give the reported value of hepatic extraction ratio for this record: Cc1cc(-c2cc(N)ncn2)ccc1CNC(=O)c1cnc(C(C)(C)C)s1
Result block: 0.72
